Field: pKi. Provide a value for each of the compounds that follow.
- study system: human recombinant sGC enzyme (Homo sapiens (Human), UniProt Q02108+Q02153)
- assay explanation: Size Exclusion Chromatography (SEC) competition binding assay using [3H] Ex-77B as the radioligand
- condition info: [3H] Ex-77B radioligand, 24 hours at 37° C.
Reminder that pKi is minus the log10 of a molar concentration.

Form: compound = CC(C)(Cc1csc([C@]2(C)C(=O)Nc3nc(-c4nn(CC5CCCCO5)c5ccccc45)nc(N)c32)n1)C(=O)O (single isomer, unassigned) [Example 229AA] ; pKi = 9.30

Form: compound = CC1(c2cccc(CCC(=O)O)c2)C(=O)Nc2nc(-c3nn(Cc4ccccc4F)c4ncccc34)nc(N)c21 (stereo not shown) [Example 22A] ; pKi = 10.11

Form: compound = CC(C)(Cc1ccc(C2(C)C(=O)Nc3nc(-c4nn(CCCC(F)(F)F)c5ncccc45)nc(N)c32)cc1)C(=O)O (stereo not shown) [Example 16B] ; pKi = 8.95

Form: compound = CC1(c2cccc(-c3nn[nH]n3)c2)C(=O)Nc2nc(-c3nn(Cc4ccccc4F)c4cc(F)ccc34)nc(N)c21 (stereo not shown) [Example 249B] ; pKi = 10.17

Form: compound = CC1(c2nc(CCC(=O)O)c[nH]2)C(=O)Nc2nc(-c3nn(Cc4ccccc4F)c4cc(Cl)ccc34)nc(N)c21 (stereo not shown) [Example 235B] ; pKi = 9.39

Form: compound = CC(C)(Cn1cc(C2(C)C(=O)Nc3nc(-c4nn(Cc5ccccc5F)c5ncccc45)nc(N)c32)cn1)C(=O)O (stereo not shown) [Example 145A] ; pKi = 9.52

Form: compound = C[C@@]1(c2ccc(CCC(=O)O)cc2)C(=O)Nc2nc(-c3nn(Cc4ccc(F)cc4)c4ccccc34)nc(N)c21 (single isomer, unassigned) [Example 221B] ; pKi = 9.79

Form: compound = C[C@@]1(c2ccc(CCC(=O)O)cc2)C(=O)Nc2nc(-c3nn(CCCC(F)(F)F)c4cc(Cl)ccc34)nc(N)c21 [Example 41B] ; pKi = 9.14

Form: compound = CC(C)(Cc1coc(C2(C)C(=O)Nc3nc(-c4nn(CC5CCCCO5)c5ncccc45)nc(N)c32)n1)C(=O)O (single isomer, unassigned) [Example 124AB] ; pKi = 9.21

Form: compound = CC(C)(Cc1csc([C@]2(C)C(=O)Nc3nc(-c4nn(CC5CCCCO5)c5ncccc45)nc(N)c32)n1)C(=O)O (single isomer, unassigned) [Example 123AA] ; pKi = 8.91

Form: compound = C[C@@]1(c2ccc(CCC(=O)O)cc2)C(=O)Nc2nc(-c3nn(CC4CCCC4)c4ccccc34)nc(N)c21 [Example 227B] ; pKi = 9.84

Form: compound = C[C@@]1(c2ccc(CCC(=O)O)cc2)C(=O)Nc2nc(-c3nn(Cc4ccccc4F)c4cc(Cl)ccc34)nc(N)c21 [Example 47B] ; pKi = 9.94

Form: compound = CC1CCC(Cn2nc(-c3nc(N)c4c(n3)NC(=O)C4(C)c3nc(CC(C)(C)C(=O)O)co3)c3ccccc32)CC1 (single isomer, unassigned) [Example 231AA] ; pKi = 10.04

---

- study system: human recombinant sGC enzyme (Homo sapiens (Human), UniProt Q02108+Q02153)
- assay explanation: Size Exclusion Chromatography (SEC) competition binding assay using [3H] Ex-77B as the radioligand
- condition info: [3H] Ex-77B radioligand, 24 hours at 37° C.
Field: pKi. Provide a value for each of the compounds that follow.
Reminder that pKi is minus the log10 of a molar concentration.

Form: compound = CC(C)(Cc1csc([C@]2(C)C(=O)Nc3nc(-c4nn(Cc5cccc(F)c5F)c5cc(F)ccc45)nc(N)c32)n1)C(=O)O [Example 199A] ; pKi = 10.15

Form: compound = CC(C)(Cc1coc(C2(C)C(=O)Nc3nc(-c4nn(Cc5ccccc5F)c5cc(Cl)ccc45)nc(N)c32)n1)C(=O)O (stereo not drawn) ; pKi = 10.17

Form: compound = CC1(c2nc(-c3cccc(C(=O)O)c3)cs2)C(=O)Nc2nc(-c3nn(CCC(F)(F)C(F)(F)F)c4cc(Cl)ccc34)nc(N)c21 (stereo not drawn) [Example 93A] ; pKi = 9.22
